Test system: S. epidermidis NCTC11047
Type: cell-based
experimental_parameters: NCTC11047
Method: Antibacterial activity of fermentation samples or purified samples was determined by Mueller-Hinton Agar diffusion bioassays using M. luteus ATCC 4698 as the indicator strain. Susceptibility testing (minimum inhibitory concentration [MIC]) for all aerobic organisms, with the exception of S. pneumoniae, was performed following the recommendations of CLSI. […]
measured_metric: MIC S. epidermidis NCTC11047 (µg/mL)
Express the result in µg/mL but write the number alone.

I have this molecule here, C=C1NC(=O)C2NC(=O)[C@H](CC(C)C)NC(=O)C(NC(=O)[C@@H]3CSC(C)C(NC(=O)[C@H](Cc4ccccc4)NC(=O)C4NC(=O)[C@@H](N)CSC4C)C(=O)N[C@@H](CC(C)C)C(=O)N4CCC[C@H]4C(=O)NCC(=O)NCC(=O)NCC(=O)NCC(=O)N[C@@H]([C@@H](C)CC)C(=O)N3)C(C)SC[C@H](NC(=O)[C@H](CCC(=O)O)NC1=O)C(=O)N[C@@H]([C@@H](C)CC)C(=O)NC=CSC2C (stereo partly shown) [V11I] , and I need its recorded MIC S. epidermidis NCTC11047.
16

====

System: S. epidermidis NCTC11047
Format: cell-based
experimental_parameters: NCTC11047
Description: Antibacterial activity of fermentation samples or purified samples was determined by Mueller-Hinton Agar diffusion bioassays using M. luteus ATCC 4698 as the indicator strain. Susceptibility testing (minimum inhibitory concentration [MIC]) for all aerobic organisms, with the exception of S. pneumoniae, was performed following the recommendations of CLSI. […]
measured_metric: MIC S. epidermidis NCTC11047 (µg/mL)
Express the result in µg/mL but write the number alone.

I have this molecule here, CC=C1NC(=O)C2NC(=O)[C@H](CC(C)C)NC(=O)C(NC(=O)[C@@H]3CSC(C)C(NC(=O)[C@H](Cc4ccccc4)NC(=O)C4NC(=O)[C@@H](N)CSC4C)C(=O)N[C@@H](CC(C)C)C(=O)N4CCC[C@H]4C(=O)NCC(=O)NCC(=O)NCC(=O)NCC(=O)N[C@@H](C(C)C)C(=O)N3)C(C)SC[C@H](NC(=O)[C@H](CCC(=O)O)NC1=O)C(=O)N[C@@H]([C@@H](C)CC)C(=O)NC=CSC2C (some centres unmarked) [S16Db] , and I need its recorded MIC S. epidermidis NCTC11047.
16

====

Test system: E. faecium 7131121 VRE
Format: cell-based
experimental_parameters: 7131121 VRE
Reported MIC E. faecium 7131121 VRE by item:

# molecule, MIC E. faecium 7131121 VRE
measured = [
    ("CC[C@H](C)[C@@H]1NC(=O)[C@@H]2CSC(C)C(NC(=O)[C@@H]3CSC(C)C(NC(=O)[C@H](Cc4ccccc4)NC(=O)C4NC(=O)[C@@H](N)CSC4C)C(=O)N[C@@H](CC(C)C)C(=O)N4CCC[C@H]4C(=O)NCC(=O)NCC(=O)NCC(=O)NCC(=O)N[C@@H](C(C)C)C(=O)N3)C(=O)N[C@@H](CC(C)C)C(=O)NC(C(=O)N[C@@H](C)C(=O)N[C@@H](CCC(=O)O)C(=O)N2)C(C)SC=CNC1=O (some centres unmarked) [S16A]", ">64 µg/mL"),
]

Okay, now this molecule:
I have this molecule here, C=C1NC(=O)C2NC(=O)[C@H](CC(C)C)NC(=O)C(NC(=O)[C@@H]3CSC(C)C(NC(=O)[C@H](Cc4ccccc4)NC(=O)C4NC(=O)[C@@H](N)CSC4C)C(=O)N[C@@H](CC(C)C)C(=O)N4CCC[C@H]4C(=O)N[C@@H](C)C(=O)NCC(=O)NCC(=O)NCC(=O)N[C@@H](C(C)C)C(=O)N3)C(C)SC[C@H](NC(=O)[C@H](CCC(=O)O)NC1=O)C(=O)N[C@@H]([C@@H](C)CC)C(=O)NC=CSC2C (some centres unmarked) [G7A] , and I need its recorded MIC E. faecium 7131121 VRE.
>64 µg/mL
